# test system: T1, biotinylated human BCMA-Fc, Avitag recombinant protein (ACRO Biosystems, #BC7-H82F0) (human, UniProt Q02223 1-54, biotinylated)
# T1 construct: extracellular domain; Bought protein; also called human BCMA protein; recombinant human BCMA-ECD-Fc; not shown: Fc of the bought fusion protein; Avitag
# T1 sequence (looked up): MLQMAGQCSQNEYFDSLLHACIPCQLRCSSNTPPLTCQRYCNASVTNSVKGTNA
# assay protocol: BLI (Octet Red96e), biotinylated BCMA-Fc on SA sensor, antibody in solution, 1:1 global fit
The entries below come with measured kon values attached.
Response body: numeric value in M⁻¹ s⁻¹, unit text excluded.

Use the examples below as a reference point.
PR000940, anti-BCMA HCAb antibody, clone 1005P10H8 (antibody, human IgG1, V domains shown, Heavy-chain-only antibody (HCAb), human IgG1 Fc, no light chain) VH: EVQLLESGGGLVQPGGSLRLSCAASGFTFSSYAMIWVRQAPGKGLEWVSGISESGGSTYYADSVKGRFTISRDNSKNTLYLQMNSLRAEDTAVYFCVKDLDDILTGYYKDYWGQGTLVTVSS = 401000
PR000943, anti-BCMA HCAb antibody, clone 1005P16A10 (antibody, human IgG1, V domains shown, Heavy-chain-only antibody (HCAb), human IgG1 Fc, no light chain) VH: EVQLVETGGGLIQPGGSLRLSCAASGFPVSSNYMSWVRQAPGKGLEWVSVIFSGGRTYYADSVKGRFTISRDNSKNTLYLQMNSLRAEDTAVYYCARRNWIDGRDAFDIWGQGTMVTVSS = 119000
PR001035, anti-BCMA HCAb antibody, clone 1005P36F3 (antibody, human IgG1, V domains shown, Heavy-chain-only antibody (HCAb), human IgG1 Fc, no light chain) VH: EVQLVETGGGLIQPGGSLRLSCAASGFTVSSNYMTWVRQAPGKGLEWVSVIFSGGSTYYADSVKGRFTISRDNSKNTLYLQMNSLRAEDTAVYYCARRIAVAGHDVFDIWGQGTMVTVSS = 325000

[in] If you can, please state the reported kon value of PR001046, anti-BCMA HCAb antibody, clone 1005P63B7 (antibody, human IgG1, V domains shown, Heavy-chain-only antibody (HCAb), human IgG1 Fc, no light chain) VH: EVQLVETGGGLIQPGGSLRLSCAASGFTVSDNYMTWVRQAPGKGLEWVSVIFSGGNTYYADSVKGRFTISRDNAKNTLYLQMNSLRAEDTALYYCARRNYDDTRGTDVFDIWGQGTMVTVSS .
[out] 423000
